Listed next: entries and their corresponding kinase still bound, per cent of control.
# target: RET (human) (UniProt P07949)
# Sequence (P07949 whole entry, looked up): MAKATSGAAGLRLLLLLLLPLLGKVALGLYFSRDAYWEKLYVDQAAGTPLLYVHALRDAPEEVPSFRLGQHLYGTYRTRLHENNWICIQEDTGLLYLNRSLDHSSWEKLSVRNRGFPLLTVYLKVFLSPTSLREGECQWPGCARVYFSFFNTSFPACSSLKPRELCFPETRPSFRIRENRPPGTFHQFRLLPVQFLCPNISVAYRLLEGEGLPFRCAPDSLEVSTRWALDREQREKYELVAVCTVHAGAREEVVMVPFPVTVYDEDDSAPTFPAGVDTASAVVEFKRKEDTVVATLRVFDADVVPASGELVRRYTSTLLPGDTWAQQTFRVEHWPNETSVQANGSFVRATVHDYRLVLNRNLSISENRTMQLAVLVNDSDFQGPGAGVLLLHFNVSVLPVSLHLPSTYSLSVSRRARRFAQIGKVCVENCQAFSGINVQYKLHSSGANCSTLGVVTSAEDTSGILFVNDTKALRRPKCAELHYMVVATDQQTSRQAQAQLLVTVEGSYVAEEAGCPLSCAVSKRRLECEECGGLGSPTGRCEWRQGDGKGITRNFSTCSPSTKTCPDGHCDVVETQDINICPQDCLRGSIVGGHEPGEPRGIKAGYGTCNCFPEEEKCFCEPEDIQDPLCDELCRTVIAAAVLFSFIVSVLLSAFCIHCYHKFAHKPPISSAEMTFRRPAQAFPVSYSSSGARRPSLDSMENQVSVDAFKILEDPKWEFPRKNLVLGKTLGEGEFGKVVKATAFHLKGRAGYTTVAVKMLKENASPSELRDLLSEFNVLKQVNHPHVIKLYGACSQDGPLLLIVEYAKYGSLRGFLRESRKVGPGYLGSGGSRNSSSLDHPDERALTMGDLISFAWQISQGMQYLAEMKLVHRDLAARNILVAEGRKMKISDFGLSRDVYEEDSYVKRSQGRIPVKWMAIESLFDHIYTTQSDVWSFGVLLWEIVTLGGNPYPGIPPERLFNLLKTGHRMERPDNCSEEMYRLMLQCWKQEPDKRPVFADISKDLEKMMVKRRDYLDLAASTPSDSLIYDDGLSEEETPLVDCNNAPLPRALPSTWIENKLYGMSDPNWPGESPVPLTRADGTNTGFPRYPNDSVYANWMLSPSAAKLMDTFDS
# methodNotes: KINOMEscan competition binding
# appliedConditions: compound 10.0 µM

# smilesRepr, kinase still bound, per cent of control (%)
data = [
    ("O=C1NC(=O)/C(=C/c2ccc3nccc(-c4ccncc4)c3c2)S1", 98),
    ("COCC(=O)NC/C=C/c1ccc2ncnc(Nc3ccc(Oc4ccc(C)nc4)c(C)c3)c2c1", 87),
    ("COc1ccc(N(C(=O)Oc2c(C)cccc2C)c2ccnc(Nc3ccc(N4CCN(C)CC4)cc3)n2)c(OC)c1", 0.1),
    ("Cc1n[nH]c2ccc(-c3cncc(OC[C@@H](N)Cc4c[nH]c5ccccc45)c3)cc12", 100),
    ("CS(=O)(=O)N1CCN(Cc2cc3nc(-c4cccc5[nH]ncc45)nc(N4CCOCC4)c3s2)CC1", 100),
    ("O=C(Nc1cccc(Nc2ncc(Br)c(NCCc3cnc[nH]3)n2)c1)N1CCCC1", 0.1),
    ("N#CCNC(=O)c1ccc(-c2ccnc(Nc3ccc(N4CCOCC4)cc3)n2)cc1", 50),
    ("COc1cc2ncnc(-n3nc(-c4ccccn4)nc3N)c2cc1OC", 20),
    ("O=c1cc(N2CCOCC2)oc2c(-c3cccc4c3sc3ccccc34)cccc12", 100),
    ("NC(=O)Nc1cc(-c2cccc(F)c2)sc1C(=O)N[C@@H]1CCCNC1", 0),
    ("CCN(CC)CCCCNc1ncc2cc(-c3cc(OC)cc(OC)c3)c(NC(=O)NC(C)(C)C)nc2n1", 26),
    ("CCN1CCN(C(=O)Cc2ccc(Nc3ncc(F)c(Nc4ccc(C(=O)Nc5ccccc5Cl)cc4)n3)cc2)CC1", 1.8),
    ("CNC(=O)c1cc(Oc2ccc(NC(=O)Nc3ccc(Cl)c(C(F)(F)F)c3)cc2)ccn1", 0.05),
    ("COc1cc2ncn(-c3cc(OCc4ccccc4C(F)(F)F)c(C(N)=O)s3)c2cc1OC", 39),
    ("COc1cc(C(=O)N2CCC(N3CCN(C)CC3)CC2)ccc1Nc1ncc2c(n1)N(C)c1ccccc1C(=O)N2C", 100),
    ("CNC(=O)c1ccc(Nc2cc(Nc3ccccc3S(=O)(=O)C(C)C)c3cc[nH]c3n2)nc1", 3.8),
    ("CCN(CC)CCCCNc1ncc2c(n1)N(C)C(=O)N(c1c(Cl)c(OC)cc(OC)c1Cl)C2", 100),
]

###

# target: DAPK1 (human)
# methodNotes: KINOMEscan competition binding
# appliedConditions: compound 10.0 µM
quantityName: kinase still bound, per cent of control (%)

# smilesRepr, quantityName, measValue
measured = [
    ("CN(C)C/C=C/C(=O)Nc1ccc(C(=O)Nc2cccc(Nc3nccc(-c4cccnc4)n3)c2)cc1", "kinase still bound, per cent of control", 58),
    ("C=CC(=O)Nc1ccc(CN(C(=O)Nc2c(Cl)c(OC)cc(OC)c2Cl)c2cc(Nc3ccc(N4CCN(C)CC4)cc3)ncn2)cc1", "kinase still bound, per cent of control", 100),
    ("COc1cc(N2CCN(C)CC2)ccc1Nc1ncc2c(n1)N(C)c1ccccc1C(=O)N2C", "kinase still bound, per cent of control", 100),
    ("CS(=O)(=O)N1CCN(Cc2cc3nc(-c4cccc5[nH]ncc45)nc(N4CCOCC4)c3s2)CC1", "kinase still bound, per cent of control", 100),
    ("N#CCNC(=O)c1ccc(-c2ccnc(Nc3ccc(N4CCOCC4)cc3)n2)cc1", "kinase still bound, per cent of control", 7),
    ("CCN1CCN(C(=O)Cc2ccc(Nc3ncc(F)c(Nc4ccc(C(=O)Nc5ccccc5Cl)cc4)n3)cc2)CC1", "kinase still bound, per cent of control", 3.8),
    ("C=CC(=O)Nc1cc(-n2c(=O)ccc3cnc4ccc(-c5cn[nH]c5)cc4c32)ccc1C", "kinase still bound, per cent of control", 70),
    ("CCN(CC)CCCCNc1ncc2cc(-c3cc(OC)cc(OC)c3)c(NC(=O)NC(C)(C)C)nc2n1", "kinase still bound, per cent of control", 100),
]
